# System: peripheral blood mononuclear cell proliferation
# Experimental details: Mononuclear cell proliferation assay (thymidine incorporation)
# Type: cell-based, human
# Test context: Homo sapiens; induced by PHA; PUFA at 20 μM; read-out: % INHIBITION OF PROLIFERATION
Assay endpoint: inhibition at 20 µM (%)
Express your answer in %, writing the number without its unit.

Write down inhibition at 20 µM measured for item CCCCC/C=C\C/C=C\C/C=C\CCCCC(=O)NCC(=O)O
29

Kindly indicate its recorded inhibition at 20 µM. Item: CCCCC/C=C\C/C=C\C/C=C\CCCCC(=O)N[C@@H](CC(=O)O)C(=O)O
15.4

Provide inhibition at 20 µM value for the following compound: CC/C=C\C/C=C\C/C=C\CCCCCCCC(=O)NCC(=O)O
15.6

Indicate the recorded inhibition at 20 µM value for this compound: CC/C=C\C/C=C\C/C=C\CCCCCCCC(=O)N[C@@H](CC(=O)O)C(=O)O
7.3
